Numbers sourced from patent US20160052936A1.

Assay: In vivo pharmacokinetics in rats
Details: Wistar, rat, plasma, po; male rats, 2 mg/kg p.o.; AUCnorm intragastral / AUCnorm i.v. (0.5 mg/kg); read-out: F (oral bioavailability)
Measured Metric: bioavailability (%)
Provide only the numeric value, understood in %.

Short answer for O=C(NCc1ncc(C(F)(F)F)cc1F)c1ccc2c(c1)C1(CCS(=O)(=O)CC1)[C@H](C1CC1)N2S(=O)(=O)c1ccc(F)cc1 (single isomer, unassigned) [Example 1.1] : bioavailability was 32

----------
Biological target: human GnRHR (Homo sapiens, UniProt P30968)
Construct: own knowledge: Tag-lite cells usually carry an N-terminal SNAP-tag fusion
Sequence (P30968 1-328): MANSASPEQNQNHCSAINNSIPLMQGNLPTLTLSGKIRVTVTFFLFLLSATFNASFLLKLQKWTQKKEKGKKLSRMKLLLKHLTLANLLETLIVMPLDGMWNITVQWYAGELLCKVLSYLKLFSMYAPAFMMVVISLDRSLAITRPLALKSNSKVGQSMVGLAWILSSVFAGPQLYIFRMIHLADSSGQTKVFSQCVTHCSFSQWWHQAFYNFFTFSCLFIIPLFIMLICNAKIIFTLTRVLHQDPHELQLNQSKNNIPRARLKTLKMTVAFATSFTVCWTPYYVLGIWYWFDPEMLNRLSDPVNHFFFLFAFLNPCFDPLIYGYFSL
Assay: Tag-Lite receptor binding assay
Settings: Hek293 cells transiently transfected with human GnRHR; displacement of green-labelled GnRHR binding peptide; read-out: Potency in receptor binding assay using TAG-LITE technology, given as IC50
Measured Metric: pIC50
In plain terms, pIC50 is the concentration in mol/L turned into minus its base-10 logarithm.

>  <Compound>
N#Cc1cccc(S(=O)(=O)N2c3ccc(C(=O)NCc4ncc(C(F)(F)F)cc4Cl)cc3C3(CCS(=O)(=O)CC3)[C@@H]2C2CC2)c1 (single isomer, unassigned) [Example 10.1]

>  <Measured Metric>
pIC50

>  <Experimental Result>
7.99

$$$$

The measured pIC50 associated with O=C(NCc1ncc(C(F)(F)F)cc1Cl)c1ccc2c(c1)C1(CCS(=O)(=O)CC1)C(C1CC1)N2S(=O)(=O)c1cccc(OC(F)F)c1 (racemic) [Example 14] reads 7.10

Reported pIC50 ( O=C(NCc1ncc(C(F)(F)F)cc1F)c1ccc2c(c1)C1(CCS(=O)(=O)CC1)[C@H](C1CC1)N2S(=O)(=O)c1ccc(F)cc1 (single isomer, unassigned) [Example 1.1] ) = 6.64

For O=C(NCc1ncc(C(F)(F)F)cc1Cl)c1ccc2c(c1)C1(CCS(=O)(=O)CC1)[C@@H](C1CC1)N2S(=O)(=O)c1ccc(F)cc1 [Example 3.2] the compound record lists pIC50 as 6.13

For this compound ( O=C(NCc1ncc(C(F)(F)F)cc1Cl)c1ccc2c(c1)C1(CCS(=O)(=O)CC1)[C@H](C1CC1)N2S(=O)(=O)c1ccc(F)cc1 [Example 3.1] ), measured pIC50 is 7.78

The recorded pIC50 for N#Cc1ccc(S(=O)(=O)N2c3ccc(C(=O)NCc4ncc(C(F)(F)F)cc4Cl)cc3C3(CCS(=O)(=O)CC3)C2C2CC2)cc1 (racemic) [Example 8] is 7.66

----------
# key: entry, value: half-life
Test: In vivo pharmacokinetics in rats
Conditions: Wistar, rat, plasma, po; male rats, 2 mg/kg p.o.
Unit h implied. Number only.

>  <Molecule>
O=C(NCc1ncc(C(F)(F)F)cc1Cl)c1ccc2c(c1)C1(CCS(=O)(=O)CC1)[C@H](C1CC1)N2S(=O)(=O)c1ccc(F)cc1

>  <Unit Spec>
h

>  <half-life>
17

$$$$
>  <Molecule>
O=C(NCc1ncc(C(F)(F)F)cc1F)c1ccc2c(c1)C1(CCS(=O)(=O)CC1)[C@H](C1CC1)N2S(=O)(=O)c1ccc(F)cc1 (single isomer, unassigned)

>  <Unit Spec>
h

>  <half-life>
5.2

$$$$
>  <Molecule>
N#Cc1cccc(S(=O)(=O)N2c3ccc(C(=O)NCc4ncc(C(F)(F)F)cc4Cl)cc3C3(CCS(=O)(=O)CC3)[C@@H]2C2CC2)c1 (single isomer, unassigned)

>  <Unit Spec>
h

>  <half-life>
3.3

$$$$

Now take the following molecule into account.
Entry N#Cc1ccc(S(=O)(=O)N2c3ccc(C(=O)NCc4ncc(C(F)(F)F)cc4Cl)cc3C3(CCS(=O)(=O)CC3)[C@@H]2C2CC2)cc1 (single isomer, unassigned) ; half-life = 5

----------
Molecular target: human GnRH receptor (Homo sapiens)
Construct: host or cells: CHO cells stably expressing human GnRH receptor (line established by Prof. Thomas Gudermann)
Sequence (P30968 1-328): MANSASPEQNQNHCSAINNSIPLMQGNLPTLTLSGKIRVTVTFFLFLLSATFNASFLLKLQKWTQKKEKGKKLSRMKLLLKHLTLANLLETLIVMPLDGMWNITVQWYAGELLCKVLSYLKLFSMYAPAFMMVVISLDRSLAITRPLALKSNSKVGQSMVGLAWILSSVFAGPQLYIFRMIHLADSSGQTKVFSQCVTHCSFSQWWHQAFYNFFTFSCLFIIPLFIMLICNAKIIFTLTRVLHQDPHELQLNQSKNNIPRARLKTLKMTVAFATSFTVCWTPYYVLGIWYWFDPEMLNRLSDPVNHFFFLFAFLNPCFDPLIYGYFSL
Assay: IP-One HTRF assay with buserelin stimulation
Format: cell-based
Settings: CHO cells stably expressing human GnRH receptor; buserelin at EC80; read-out: Potency in IP-One HTRF assay with buserelin (at EC80) stimulation, given as IC50
pIC50: −log10 of the molar value.
Record yes (1) whenever pIC50 is at 7 or higher; record no (0) when lower.

Reference set (3 entries):
>  <Molecule>
N#Cc1ccc(S(=O)(=O)N2c3ccc(C(=O)NCc4ncc(C(F)(F)F)cc4Cl)cc3C3(CCS(=O)(=O)CC3)C2C2CC2)cc1 (racemic)

>  <Label>
yes (1)

$$$$
>  <Molecule>
O=C(NCc1ncc(C(F)(F)F)cc1F)c1ccc2c(c1)C1(CCS(=O)(=O)CC1)C(C1CC1)N2S(=O)(=O)c1cccc(OC(F)(F)F)c1 (racemic)

>  <Label>
no (0)

$$$$
>  <Molecule>
O=C(NCc1ncc(C(F)(F)F)cc1Cl)c1ccc2c(c1)C1(CC[S+]([O-])CC1)C(C1CC1)N2S(=O)(=O)c1ccc(F)cc1 (mixture of isomers)

>  <Label>
yes (1)

$$$$

Now for a further molecule.
hey, is pIC50 for this one >= 7? O=C(NCc1ncc(C(F)(F)F)cc1F)c1ccc2c(c1)C1(CCS(=O)(=O)CC1)C(C1CC1)N2S(=O)(=O)c1cccc(OC(F)F)c1 (racemic)
no (0)

----------
Molecular target: human GnRH receptor (Homo sapiens, UniProt P30968)
Test: IP-One HTRF assay with buserelin stimulation
Conditions: CHO cells stably expressing human GnRH receptor; buserelin at EC80; read-out: Potency in IP-One HTRF assay with buserelin (at EC80) stimulation, given as IC50
# maps each entry to its pIC50
Worth noting: pIC50 values are minus log10 of concentrations stated in mol/L.

>  <Compound>
O=C(NCc1ncc(C(F)(F)F)cc1Cl)c1ccc2c(c1)C1(CCS(=O)(=O)CC1)C(C1CC1)N2S(=O)(=O)c1ccc(F)cc1 (racemic) [Example 3]

>  <Tested System>
human GnRH receptor (Homo sapiens, UniProt P30968)

>  <pIC50>
7.28

$$$$
>  <Compound>
NC(=O)c1ccc(S(=O)(=O)N2c3ccc(C(=O)NCc4ncc(C(F)(F)F)cc4Cl)cc3C3(CCS(=O)(=O)CC3)C2C2CC2)cc1 (racemic) [Example 17]

>  <Tested System>
human GnRH receptor (Homo sapiens, UniProt P30968)

>  <pIC50>
6.59

$$$$

Field: next compound
Entry O=C(NCc1ncc(C(F)(F)F)cc1Cl)c1ccc2c(c1)C1(CCS(=O)(=O)CC1)C(C1CC1)N2S(=O)(=O)c1ccc(Cl)cc1 (racemic) [Example 19] , pIC50 reported as 7.51

----------
Biological target: human GnRH receptor (Homo sapiens)
Assay: IP-One HTRF assay with buserelin stimulation
Conditions: CHO cells stably expressing human GnRH receptor; buserelin at EC80; read-out: Potency in IP-One HTRF assay with buserelin (at EC80) stimulation, given as IC50
Measured Metric: pIC50
Remember the convention: pIC50 equals -log10 of concentration in molar.

Worked cases, pIC50 given:
>  <Molecule>
O=C(NCc1ncc(C(F)(F)F)cc1Cl)c1ccc2c(c1)C1(CCS(=O)(=O)CC1)C(C1CC1)N2S(=O)(=O)c1ccc(OC(F)F)cc1 (single isomer, unassigned) [Example 16.2]

>  <Tested System>
human GnRH receptor (Homo sapiens)

>  <Measured Metric>
pIC50

>  <Experimental Result>
6.06

$$$$
>  <Molecule>
O=C(NCc1ncc(C(F)(F)F)cc1Cl)c1ccc2c(c1)C1(CCS(=O)(=O)CC1)C(C1CC1)N2S(=O)(=O)c1cccc(OC(F)(F)F)c1 (racemic)

>  <Tested System>
human GnRH receptor (Homo sapiens)

>  <Measured Metric>
pIC50

>  <Experimental Result>
6.66

$$$$
>  <Molecule>
O=C(NCc1ncc(C(F)(F)F)cc1F)c1ccc2c(c1)C1(CCS(=O)(=O)CC1)[C@H](C1CC1)N2S(=O)(=O)c1ccc(F)cc1 (single isomer, unassigned)

>  <Tested System>
human GnRH receptor (Homo sapiens)

>  <Measured Metric>
pIC50

>  <Experimental Result>
7.03

$$$$
>  <Molecule>
O=C(NCc1ncc(C(F)(F)F)cc1F)c1ccc2c(c1)C1(CCS(=O)(=O)CC1)C(C1CC1)N2S(=O)(=O)c1ccc(F)cc1 (racemic)

>  <Tested System>
human GnRH receptor (Homo sapiens)

>  <Measured Metric>
pIC50

>  <Experimental Result>
6.38

$$$$
>  <Molecule>
Cc1cnc(CNC(=O)c2ccc3c(c2)C2(CCS(=O)(=O)CC2)C(C2CC2)N3S(=O)(=O)c2ccc(F)cc2)c(C(F)(F)F)c1 (racemic)

>  <Tested System>
human GnRH receptor (Homo sapiens)

>  <Measured Metric>
pIC50

>  <Experimental Result>
6.06

$$$$
>  <Molecule>
O=C(NCc1ncc(Cl)cc1C(F)(F)F)c1ccc2c(c1)C1(CCS(=O)(=O)CC1)C(C1CC1)N2S(=O)(=O)c1ccc(F)cc1 (racemic)

>  <Tested System>
human GnRH receptor (Homo sapiens)

>  <Measured Metric>
pIC50

>  <Experimental Result>
7.16

$$$$
>  <Molecule>
COc1cccc(S(=O)(=O)N2c3ccc(C(=O)NCc4ncc(C(F)(F)F)cc4F)cc3C3(CCS(=O)(=O)CC3)C2C2CC2)c1 (racemic)

>  <Tested System>
human GnRH receptor (Homo sapiens)

>  <Measured Metric>
pIC50

>  <Experimental Result>
6.64

$$$$
>  <Molecule>
N#Cc1cccc(S(=O)(=O)N2c3ccc(C(=O)NCc4ncc(C(F)(F)F)cc4Cl)cc3C3(CCS(=O)(=O)CC3)[C@H]2C2CC2)c1 (single isomer, unassigned)

>  <Tested System>
human GnRH receptor (Homo sapiens)

>  <Measured Metric>
pIC50

>  <Experimental Result>
5.71

$$$$
>  <Molecule>
O=C(NCc1ncc(C(F)(F)F)cc1F)c1ccc2c(c1)C1(CCS(=O)(=O)CC1)C(C1CC1)N2S(=O)(=O)c1ccc(Cl)cc1 (single isomer, unassigned) [Example 18.1]

>  <Tested System>
human GnRH receptor (Homo sapiens)

>  <Measured Metric>
pIC50

>  <Experimental Result>
7.51

$$$$
>  <Molecule>
O=C(NCc1ncc(C(F)(F)F)cc1Cl)c1ccc2c(c1)C1(CCS(=O)(=O)CC1)[C@@H](C1CC1)N2S(=O)(=O)c1ccc(F)cc1

>  <Tested System>
human GnRH receptor (Homo sapiens)

>  <Measured Metric>
pIC50

>  <Experimental Result>
5.61

$$$$

For the next question, use this molecule.
Notebook: O=C(NCc1ncc(C(F)(F)F)cc1Cl)c1ccc2c(c1)C1(CCS(=O)(=O)CC1)C(C1CC1)N2S(=O)(=O)c1ccc(OC(F)F)cc1 (racemic) [Example 16] , pIC50 read as 7.43
